system: MS2 coat protein; assay: apparent KD of MS2 coat protein; designed switch direction (-1 OFF switch, 1 ON switch): -1; higher = weaker reporter binding; conditions: input ligand: microRNA oligo, concentration not stated
Value kind: apparent KD of MS2 coat protein (nM)
One number for each entry, in nM.

Sequence text	Unit tag	apparent KD of MS2 coat protein
AAUUAUUGAUGAGGAUAUUGUGGUGAAACACGACGAGAAGGCAUAUGUCACAUGAGGAUCACCCAUGUGAGCCUUGUGCAUAUA [Ex NG1 #64] (Eterna round: R96, puzzle: Exclusion NG 1)	nM	15.8
CUGAGCAGACGGAGAUCCAACAUGAGGAUCACCCAUGUCUCAAAAGCUUUUUGCUUGUCUUAUCCUCCUCUGUUCAC [Esqutian] (Eterna round: R96, puzzle: Sensor v3, turn-off variant 1)	nM	222
AGAUCUAGGACAGGAUAUACAGAUGGCUUCAUCGAAGAUGAAGCCAUCACAUGAGGAUCACCCAUGUAGAAGGGUCCUAGAUCA [Omei Exc(NG) 2Av4] (Eterna round: R96, puzzle: Exclusion NG 2)	nM	9.47

# context switch: different sequence, same apparent KD of MS2 coat protein
The sequence GGAUAAAACUGAGGAUAUGAGGAGAGAGAGAGAUCAGAAGGCAGACAUGAGGAUCACCCAUGUGAGUUCUCGAUAAGAAACACG [Prohibition 56 - Jieux - Exclusion NG 1] (Eterna round: R96, puzzle: Exclusion NG 1) , when measured on MS2 coat protein, yielded apparent KD of MS2 coat protein of 30.7

* * *

tested on: K4 kissing-loop RNA reporter; assay: apparent KD of K4 kissing-loop reporter; higher = weaker reporter binding; conditions: Eterna round: R107; input ligand: none
Value kind: apparent KD of K4 kissing-loop reporter (µM)
Numbers only, in µM.

Consider the following illustrative entries.
Sequence text	Target or system	Unit tag	apparent KD of K4 kissing-loop reporter
UGGCGACUGCCAGUGAUGUUGGCCGUCGUACGAGGACCGGUACGGCCGCCACUCGUCCUGGUUUAGGCUCCGCCUUCACAUCAGG [Beterire]	K4 kissing-loop RNA reporter	µM	0.393
GGGUAUUACGGAGGAUAUGCACUGAGGAGGAGAAUAUAGUGAUGUUAUAUAAGAGGAAGGAGAAGAGUAGAAGGCCGUGGUAUUG [SSFMNB.H]	K4 kissing-loop RNA reporter	µM	0.281
UUUUUUUACUGAAGGAGCGGCAAUUGAUACGUAGAUAUAGUGAUGUUAUAUAAGAUAGAGAGCCAGGUAGGUCGCAGAUUUUUUU [ExArgB.W]	K4 kissing-loop RNA reporter	µM	0.163
GUCUGCUGUAUCGAUACCAGAAGUGGGCAGUGAUGUUGUUCGGGUACAUCGCGUCUCGAGUUCCCUUGGCAGCGAUUGUACGAAU [theeternabot_exclusion_KL_Theo_B_12]	K4 kissing-loop RNA reporter	µM	0.695
GCUAAGGAGUGAUGUUCCAAGUGAUGUUAACGAGGACCGGUACGGCCGCCACUCGAUACGGCCGGAAAGUAAGAUAAACUACAGU [Same State - Tryptophan A (Freestyle 4)]	K4 kissing-loop RNA reporter	µM	0.0771

Here is another sequence to look at.
Per the records, this sequence ( AAAUAGAUCAGUCAACCAGUGAUGUUGGAAGGAGCGUGCGAAAGCACAGGUAGGUCGCCAUAAUAAAAUUGGCUGAUCAAAAUAA ) has apparent KD of K4 kissing-loop reporter equal to 0.648

* * *

Answer each item with its documented apparent KD of K4 kissing-loop reporter.
system: K4 kissing-loop RNA reporter; assay: apparent KD of K4 kissing-loop reporter; higher = weaker reporter binding; conditions: Eterna round: R107; input ligand: tryptophan 2.4 mM;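 further: bound reporter read as fluorescence of individual clusters on recovered sequencing chips by microscopy, with normalized cluster intensities fitted with a binding model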
Numbers only, in µM.

Consider the worked cases shown below.
Sequence text	Target or system	Value kind	Readout value
GGACGCCGGUCGGCCGCCACUCACAGCAGUGAUGUUCCUGAGAAUGUAGCGGAGUGAUGUUCCGAGAGGACCGGGACUGCAGUUU [Same State Tryptophan B GF 8]	K4 kissing-loop RNA reporter	apparent KD of K4 kissing-loop reporter	0.84
AAAGAGUCACUCGAAGCCAUCGAAGAUGGGCGAGGACCGGUACGGCCGCCACUCGGAGUGAUGUUCCGAAGACUGUAAAAUAAAA [MatMod 11 - Jieux - Exclusion - Tryptophan A]	K4 kissing-loop RNA reporter	apparent KD of K4 kissing-loop reporter	0.355
UGGAGUUGACGAAAAGUCAACUCCUGAGAUACCAGUGACGAAAGUCACCCUUGGCAGCUCACUGCCAGUGAUGUUGGUUCAUAAG [#03 K4 Theophylline A Same State]	K4 kissing-loop RNA reporter	apparent KD of K4 kissing-loop reporter	0.142
AAAAUAAACCAGUGAUGUUGGUGUCUAGAUACCAGCGACGAAAGUCGCCCUUGGCAGCUGUGGACGUACAAAAUAAGUACGUCCU [MatMod 5 - Jieux - Same State - Theophylline A]	K4 kissing-loop RNA reporter	apparent KD of K4 kissing-loop reporter	0.472
GCCUAGCAGGGAAGGAGCGCCAUAAGAAGUAAAGGAGGGAGUUGAGUGAUGUUCAAAAUGUGGCAGGUAGGUCGCCCUGCUAGGC [KL-SSArg B13]	K4 kissing-loop RNA reporter	apparent KD of K4 kissing-loop reporter	0.507
UGUCAUUGGUCGGCCGCCACUGAAAUAAAAGAGUGAUGUUCUUAAAAGACGGACAAAGUCUGUCAUAGGACCGGGACCGAUGACU [TrypBS 24 #SwitchBubble #StaticStem]	K4 kissing-loop RNA reporter	apparent KD of K4 kissing-loop reporter	0.38
CUCGUGGGUUUGAGAGGGUUUGUGGGAAGUGAGGAUAUUUAGGGAGAAAGAAGGCACUAUAAAAUAUAGUGAUGUUAUAUAAGGG [SSFMNA.L]	K4 kissing-loop RNA reporter	apparent KD of K4 kissing-loop reporter	0.198
CAGCCCAAAUGGCGAGAAGUGUUCCUUAGUCGAGGACCGGUACGGCCGCCACUCGCUCUAAACAUUAGGAGUGAUGUUCCAUUAG	K4 kissing-loop RNA reporter	apparent KD of K4 kissing-loop reporter	0.0906

For each of the sequences below, state apparent KD of K4 kissing-loop reporter.
1. UUGACCUACUCAGGAUAUCCGCAGUGAUGUUGCGGUUGGCCUGAGCGGCAUGAAAAUCUUACUACAGGAGAAGGGAGAGGGUUAC [Atusgeis]
2. CCUAUCUCGUACGAUACCAGUCAAUGAUCUUUGAUCAAUGCCAUCACCGAGUGAUGUUCGGACCCUUGGCAGCGUAUGAGAUGGG [whbob_Ex_Theo_B_sa105]
3. UCCUGCAAUCGUCCACGAAAGUGGAUCGAUACCAGAGUCGAAAGACUCCCUUGGCAGCGAGUGAUGUUCGAAGCAGGUAAAUAAA
4. ACCAAUUUACCGGCAGUAGUGAUGUUACUCCGAGGACCGGUACGGCCGCCACUCGCGAACGUAGGGUUUCUGACUCGAAGAGUCU

[reply]
0.086
0.242
0.391
0.171

* * *

system: MS2 coat protein; assay: apparent KD of MS2 coat protein; designed switch direction (-1 OFF switch, 1 ON switch): 1; higher = weaker reporter binding; conditions: input ligand: microRNA oligo, concentration not stated
Value kind: apparent KD of MS2 coat protein (nM)
Numbers only, in nM.

Need apparent KD of MS2 coat protein for each of these sequences.
1. AGAUGUUAAUUAGGAUAUGGACACAUGAGGAUCACCCAUGUAACGUAGAUACGAUGUGGUCAAGUCUAGAAGGGAUAGCUAACA [SameState NG2 #76] (Eterna round: R96, puzzle: Same State NG 2)
2. AGCCUGAGUCGAGGAUAUUAUGGAUCCUCUAAUACAUGAGGAUCACCCAUGUAAUUAAUUAUACAUGAGAAGGCGACUCAGGCA [SSNG2/12-A3] (Eterna round: R96, puzzle: Same State NG 2)
3. AUUGCUUACGCAGGAUAUGAUGCGAAAAUUGCGUCAGAAGGGUGAAGUAUCUCAUUGCAACAGGACAUGAGGAUCACCCAUGUC [SameState NG1 #99] (Eterna round: R96, puzzle: Same State NG 1)

[reply]
1: 35.2; 2: 69.4; 3: 303

* * *

tested on: MS2 coat protein; test: apparent KD of MS2 coat protein; designed switch direction (-1 OFF switch, 1 ON switch): -1; higher = weaker reporter binding; settings: input ligand: FMN 200 uM
Provide the reported apparent KD of MS2 coat protein of each item.
Note: a bare number is incomplete; add the unit.

Sequence text	Value kind	Readout value
AAUCUACAUGUAGGAUAUGCGUGGCAAAGCUAUGCAGAAGGACAUGAGGAUCACCCAUGUUUUAGCGUCUGCGUACAGAUGCGA [Mat - Exclusion NG 1 - Mod of JL - D100] (Eterna round: R96, puzzle: Exclusion NG 1)	apparent KD of MS2 coat protein	147 nM

Let's switch to this sequence now.
Memo: UUAACGUCAGGAUAUGCAUAAUAUAUUAUAUUAUAAUAUAUACAUGAGGAUCACCCAUGUAGAAGGGACAUUAU [LRO-Excl2-01-Fireball XL5] (Eterna round: R97, puzzle: Exclusion 2) , reported apparent KD of MS2 coat protein: 42.7 nM

Numbers sourced from the supplement of paper PMC9170038.
